In this section, each of the molecules is paired with its reported growth.
# Tested on: OVCAR-5 ovarian
# experimental-protocol: NCI-60 one-dose screen, 48 h (100 = growth as untreated, 0 = no growth, -100 = all killed)
# condition-label: 10 µM unless noted
Compounds without any hit were thinned out: in the full panel of roughly 83,000, 20% have a hit.
Note: unit % is implicit; provide only the numeric part.

Example entries begin here.
CCCCCCCCCCCCCCCC[N+]1(CC)CCCC1
0.586
N=S(=O)(NC(=O)c1ccc(Cl)cc1Cl)c1ccc(Br)s1 (stereo not given)
119

Which growth value belongs to O=C1CCc2c(sc3[nH]c(=S)n(Cc4ccccc4)c(=O)c23)C1 ?
9.59

# repeat for O=C(CO[N+](=O)[O-])Nc1ccc(C(=O)/C=C/c2ccc3c(c2)OCO3)cc1
96.5

# repeat for CNC(=O)c1cc(Oc2ccc3nc(NC(=O)Nc4ccc(CN5CCOCC5)c(C(F)(F)F)c4)sc3c2)ccn1
38.6

# repeat for Nc1ccc2c(c1)C(=O)NC2=O
92.8

# repeat for COc1cc2c(cc1O)CCc1cc(O)cc(OC)c1-2
109

====

# Test system: SF-268 CNS
# experimental-protocol: NCI-60 one-dose screen, 48 h
# condition-label: 10 µM unless noted
Compounds without any hit were thinned out: in the full panel of roughly 83,000, 20% have a hit. Activity calls are given as the source filed them. How the source made its calls: active means growth percent below 10; inactive means the rest.
Just give me one of these, please: active, inactive

Cn1c(=O)c2[nH]c(C(O)C(O)C(O)C(O)CO)nc2n(C)c1=O (stereo unspecified)
inactive
Nc1ccc(Nc2nccc(-c3ccc4ccccc4c3)n2)cc1
inactive
CC[C@H](Nc1nc(N)nc(C)c1C#N)c1nc2cccc(NCc3ccc(C(=O)NO)cc3)c2c(=O)n1-c1ccccc1
active
O=C(Nc1ccc(Oc2ccc(F)cc2)c(Cl)c1)c1cccnc1
inactive

Name the outcome recorded for O=S(=O)(NCCCNc1cc(-c2cn(-c3ccccc3)nc2-c2ccccc2)ccn1)c1ccc(C(F)(F)F)cc1 in the assay.
inactive

# repeat for COc1c(Cl)cc(Cl)cc1Cl
inactive

# repeat for COCCCN=C(N)c1ccc(NC(=O)c2ccc(C(=O)Nc3ccc(C(N)=NCCCOC)cc3)cc2)cc1
inactive

# repeat for O=C(O)c1cccnc1Br
inactive

====

# System: NCI-H522 lung
# experimental-protocol: NCI-60 one-dose screen, 48 h (100 = growth as untreated, 0 = no growth, -100 = all killed)
# condition-label: 10 µM unless noted
# Protocol: Growth inhibition of the NCI-H522 human Non-Small Cell Lung tumor cell line is measured as a screen for anti-cancer activity. Cells are grown in 96 well plates and exposed to the test compound for 48 hours. Compounds are tested at a single concentration, which is 10^-5 M for most compounds. The reported endpoint is percent growth (GI% or GIPRCNT), where numbers from 0 - 100% represent growth inhibition, and numbers from -100% - 0 represent cell death. […]
The panel holds about 83,000 compounds, 20% with a hit somewhere; the sample as a whole holds those more often.
experimental-endpoint: growth (%)
Note: unit % is implicit; provide only the numeric part.

CCCCCCCCCC(=O)Oc1ccc(/C(=C(/C)Cc2cccc(OC)c2)c2ccc(OCCN(C)C)cc2)cc1
97

Which growth value belongs to CCCCCCCCCCCCCCCC[N+]1(CC)CCCC1 ?
-73.7

# repeat for CC/C(Cc1ccccc1)=C(\c1ccc(OCCN2CCCC2)cc1)c1ccc(OC(C)=O)cc1
83.2

# repeat for O=C1C=CC(=O)N1c1ccc(Cc2ccc(N3C(=O)C=CC3=O)cc2)cc1
94.5

# repeat for Cc1ccc(Nc2nc(N)nc(Nc3ccc4ccccc4c3)n2)cc1
6.88

# repeat for N#CC1=C(N)Oc2c(ccc3ccccc23)C1c1cccs1 (stereo not drawn)
-0.254
